systemUnderTest: T1, recombinant SARS-CoV-2 Spike RBD domain, BQ.1.1 variant (SARS-CoV-2)
T1 construct: also called RBD BQ.1.1. variant
testProtocol: ELISA on coated RBD
Listed here are binders together with their documented Binding AUC.

binder	Binding AUC
SPK002M A1 antibody (antibody, human IgG1, kappa, V domains shown) VH: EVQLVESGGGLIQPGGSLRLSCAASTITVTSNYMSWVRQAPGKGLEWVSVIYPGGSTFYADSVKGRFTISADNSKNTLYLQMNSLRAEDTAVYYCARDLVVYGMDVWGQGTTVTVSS VL: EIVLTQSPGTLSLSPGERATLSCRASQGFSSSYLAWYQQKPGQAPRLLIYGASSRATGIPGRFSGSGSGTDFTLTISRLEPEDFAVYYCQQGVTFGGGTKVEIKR	30
SPK002M A2 antibody (antibody, human IgG1, kappa, V domains shown) VH: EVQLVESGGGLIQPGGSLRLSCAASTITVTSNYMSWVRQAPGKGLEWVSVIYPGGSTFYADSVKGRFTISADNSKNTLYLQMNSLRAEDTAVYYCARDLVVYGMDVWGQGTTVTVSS VL: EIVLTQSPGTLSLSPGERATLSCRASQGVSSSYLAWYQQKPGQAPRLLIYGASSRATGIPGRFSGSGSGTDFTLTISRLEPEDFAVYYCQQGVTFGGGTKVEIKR	30
SPK002M A4 antibody (antibody, human IgG1, kappa, V domains shown) VH: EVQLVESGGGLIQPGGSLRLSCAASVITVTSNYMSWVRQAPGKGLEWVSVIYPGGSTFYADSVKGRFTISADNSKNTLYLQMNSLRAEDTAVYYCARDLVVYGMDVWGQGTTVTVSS VL: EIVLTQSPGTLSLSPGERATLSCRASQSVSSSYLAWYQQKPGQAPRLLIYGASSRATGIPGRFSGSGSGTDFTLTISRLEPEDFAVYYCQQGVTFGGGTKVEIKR	30
